From: ChEMBL document CHEMBL5055655

- Test system: J774.A1
- assay_remarks: Cytotoxicity against mouse J774A.1 cells assessed as reduction in cell viability at 10 uM after 24 hrs by MTT assay
- Format: cell-based
- condition_set: j774.a1, 24 h

compound	assay_target	Activity
O=C(/C=C/c1ccc(O)c(O)c1)c1cc(Br)ccc1O	J774.A1	Non-Toxic
O=C(/C=C/c1ccc(O)c(O)c1)c1ccc(Br)cc1O	J774.A1	Non-Toxic
O=C(/C=C/c1ccc(O)c(O)c1)c1ccc(F)cc1O	J774.A1	Non-Toxic
O=C(/C=C/c1ccc(O)c(O)c1)c1ccc(OCCN2CCOCC2)cc1O	J774.A1	Non-Toxic
O=C(/C=C/c1ccc(O)c(O)c1)c1cc(F)ccc1O	J774.A1	Non-Toxic
CN1CCN(CCCOc2ccc(O)c(C(=O)/C=C/c3ccc(O)c(O)c3)c2)CC1	J774.A1	Non-Toxic
O=C(/C=C/c1ccc(O)c(O)c1)c1cc(OCCCN2CCCC2)ccc1O	J774.A1	Non-Toxic
O=C(/C=C/c1ccc(O)c(O)c1)c1cc(OCCCN2CCCCC2)ccc1O	J774.A1	Non-Toxic
O=C(/C=C/c1ccc(O)c(O)c1)c1cc(OCCN2CCOCC2)ccc1O	J774.A1	Non-Toxic
O=C(/C=C/c1ccc(O)c(O)c1)c1cc(OCCCN2CCOCC2)ccc1O	J774.A1	Non-Toxic
CN(C)CCCOc1ccc(C(=O)/C=C/c2ccc(O)c(O)c2)c(O)c1	J774.A1	Non-Toxic
COc1cc(O)c(C(=O)/C=C/c2ccc(O)c(O)c2)cc1OC	J774.A1	Non-Toxic
O=c1c(O)c(-c2ccc(O)c(O)c2)oc2cc(O)ccc12 [FISETIN]	J774.A1	Non-Toxic
O=c1c(O)c(-c2ccc(O)c(O)c2)oc2cc(Br)ccc12	J774.A1	Non-Toxic
O=C(/C=C/c1ccc(O)c(O)c1)c1ccc(OCCCN2CCCC2)cc1O	J774.A1	Non-Toxic
O=c1c(O)c(-c2ccc(O)c(O)c2)oc2cc(F)ccc12	J774.A1	Non-Toxic
O=C(/C=C/c1ccc(O)c(O)c1)c1ccc(OCCN2CCCC2)cc1O	J774.A1	Non-Toxic
O=C(/C=C/c1ccc(O)c(O)c1)c1cc(OCCN2CCCC2)ccc1O	J774.A1	Non-Toxic
COc1ccc(C(=O)/C=C/c2ccc(O)c(O)c2)c(O)c1 [CALYTHROPSIN]	J774.A1	Non-Toxic
O=c1c(O)c(-c2ccc(O)c(O)c2)oc2ccc(Br)cc12	J774.A1	Non-Toxic
O=C(/C=C/c1ccc(O)c(O)c1)c1ccc(OCCCN2CCOCC2)cc1O	J774.A1	Non-Toxic
O=C(/C=C/c1ccc(O)c(O)c1)c1ccc(OCCCN2CCCCC2)cc1O	J774.A1	Non-Toxic

----------
- System: J774.A1
- assay_remarks: Antiinflammatory activity in mouse J774.A1 cells assessed as inhibition of LPS-induced TNF-alpha secretion incubated for 2 followed by LPS stimulation and measured after 22 hrs by ELISA
- Assay type: functional, cell-based
- condition_set: J774.A1, 22 h
pIC50: −log10 of the molar value.

substance_smiles	assay_target	pIC50
CN(C)CCCOc1ccc(C(=O)/C=C/c2ccc(O)c(O)c2)c(O)c1	J774.A1	5.59
